# test: in vivo
# Parameters: species or system mice
# cond: male, NOD.Cg-Rag1tm1Mom Il2rgtm1Wjl/SzJ (NRG), mouse, iv, total radioactivity, Biodistribution: Bone
Where a SMILES comes first, the peptide text is derived from it. Bridges are numbered along the chain shown (N, C = ends). [ ]: non-standard residue; d: D form. The star is where a group is joined. X3 = O=C(O)CN1CCN(CC(=O)O)CCN(CC(=O)N[C@@H](CS(=O)(=O)O)C(=O)N[C@@H](CCCCNC(=O)CCCc2ccc(Br)cc2)C(=O)*)CCN(CC(=O)O)CC1; X1 = O=C(O)CN1CCN(CC(=O)O)CCN(CC(=O)N[C@@H](CS(=O)(=O)O)C(=O)N[C@@H](CCCCNC(=O)CCCc2ccc(I)cc2)C(=O)*)CCN(CC(=O)O)CC1; 2Nal = N[C@@H](Cc1ccc2ccccc2c1)C(=O)O; Lys(iPr) = CC(C)NCCCC[C@H](N)C(=O)O
Reported tissue uptake at 72 h values for a set of compounds
Answer format: numeric, %ID/g implied, no suffix.

CC(C)NCCCC[C@H](NC(=O)[C@H]1CCC(=O)N[C@@H](CCCCNC(=O)[C@H](CCCCNC(=O)CCCc2ccc(Br)cc2)NC(=O)[C@H](CS(=O)(=O)O)NC(=O)CN2CCN(CC(=O)O)CCN(CC(=O)O)CCN(CC(=O)O)CC2)C(=O)N[C@@H](Cc2ccc(O)cc2)C(=O)N[C@@H](CCCCNC(C)C)C(=O)N[C@H](CCCNC(=N)N)C(=O)N[C@@H](Cc2ccc3ccccc3c2)C(=O)N[C@H](C)C(=O)N1)C(N)=O [[^177Lu]Lu-BL34L20, metal not drawn] (K(X3)Y[Lys(iPr)][dR][2Nal][dA][dE][Lys(iPr)]-NH2; lactam N-7): 0.26

**Query** I have this compound here, CC(C)NCCCC[C@H](NC(=O)[C@H]1CCC(=O)N[C@@H](CCCCNC(=O)[C@H](CCCCNC(=O)CCCc2ccc(I)cc2)NC(=O)[C@H](CS(=O)(=O)O)NC(=O)CN2CCN(CC(=O)O)CCN(CC(=O)O)CCN(CC(=O)O)CC2)C(=O)N[C@@H](Cc2ccc(O)cc2)C(=O)N[C@@H](CCCCNC(C)C)C(=O)N[C@H](CCCNC(=N)N)C(=O)N[C@@H](Cc2ccc3ccccc3c2)C(=O)N[C@H](C)C(=O)N1)C(N)=O [[^177Lu]Lu-BL34L11, metal not drawn] (K(X1)Y[Lys(iPr)][dR][2Nal][dA][dE][Lys(iPr)]-NH2; lactam N-7) , and I need its recorded tissue uptake at 72 h.
**Result** 0.42
